Data provenance: the NIST ThermoML archive (doi:10.1021/je700690q)

Would you kindly list vapor or sublimation pressure for each of these compounds?
TEST PARAMETERS: 364.52 K; Liquid; Closed cell (Static) method
Could you give me the number in kPa? Just the number is fine.

Look up vapor or sublimation pressure for this compound: CCC(C)O (centres undefined)
75.4

Which vapor or sublimation pressure reading was recorded for the compound CC(C)(C)O ?
143.3

# get_value(readout='vapor or sublimation pressure', item= CO )
267.6
